# System: human neuroblastoma cell line SH-SY5Y
# methodDescription: Inhibition of BSO-induced non-apoptotic cell death (Example B.1)
# Type: cell-based
# assaySetup: SH-SY5Y cells, 50 μM BSO, 72 hours, read-out: SH-SY5Y/BSO IC50
# Experimental: Inhibition of BSO-Induced Non-Apoptotic Cell Death by Compounds Disclosed Herein […] Compounds disclosed herein were evaluated for their ability to promote cell survival upon administration of a lethal dose of BSO to cell-culture medium. […] After incubation, cell survival was detected using the live/dead cell assay AquaBluer™ (MultiTarget Pharmaceuticals) and quantified using a fluorescence plate reader (excitation filter: 530-560 nm/emission filter: 590 nm) (SpectraMax M4; Molecular Devices). […]
Known IC50 of a selection of compounds
observationType: IC50

{"compoundStructure": "Fc1cc2c(cc1F)NC1(CCNCC1)C(NCc1ccccc1Cl)=N2", "observationType": "IC50", "testResult": "< 10 nM"}
{"compoundStructure": "FC(F)(F)c1cccc(CNC2=Nc3cc(Cl)c(Cl)cc3NC23CCNCC3)c1", "observationType": "IC50", "testResult": "< 20 nM"}
{"compoundStructure": "FC1(F)Oc2cc3c(cc2O1)NC1(CCCCC1)C(NCc1ccccc1)=N3", "observationType": "IC50", "testResult": "< 50 nM"}
{"compoundStructure": "FC(F)(F)c1cccc2c1N=C(NCc1ccccc1)C1(CCCCC1)N2", "observationType": "IC50", "testResult": "< 50 nM"}
{"compoundStructure": "Clc1cccc(CNC2=Nc3ccccc3NC23CCCCCCC3)c1", "observationType": "IC50", "testResult": "< 50 nM"}
